# Tested system: T1, Unprocessed hMPV PreF trimer (human metapneumovirus, strain B2)
# T1 construct: also called Unprocessed hMPV WT PreF trimer; unprocessed hMPV PreF trimeric antigen
# Measurement description: BLI, mAb on anti-human Fc sensor
Assay metric: Octet binding response (nm)
Please give a number only; it is taken to be in nm.

Data request: // fetch Octet binding response given entry M2B10 (antibody, V domains shown, IgG) VH: QVQLVESGGGVVQPGRSLRLSCAASGFTFSNYPMHWVRQAPGKGLAWVALISYDGRTKYYADSVKGRFTISRDNSMNTVYLQMNSLRAEDTAVYYCAREGLEYLNYWGQGTLVTVSS VL: EIVLTQSPGTLSLSPGERATLSCRASQSISSNSLAWYQQKPGQAPRLLSYGTSNRATGIPDRFSGSGSGTDFTLTISRLEPEDFAVYYCQQYGSSPLTFGPGTKVDIK
Data returned: 0.209

Data request: // fetch Octet binding response given entry M3C04 (antibody, V domains shown, IgG) VH: EVQLVQSGAEVKKPGESLKISCKGSGYNFANYWIGWVRQMPGKGLEWMGIIYPGDSDTRRNPSFQGHVTMSVDQSISTAYLQWSSLKASDTAMYYCARPLAVSAFDIWGQGTMVTVSS VL: DIQMTQSPSSLSASVGDKLTITCRASQSISNYLNWYQQKSGKAPKLLIYAASSLQSGVPSRFSGSGSGTDFTLTISSLQPEDFATYYCQQSASTPHTFGQGTKVEIV
Data returned: 0.379

Data request: // fetch Octet binding response given entry M4A06 (antibody, V domains shown, IgG) VH: EVQLVESGGGLVRPGGSLRLSCAASGFSLTTDEVNWVRQAPGKGPEWVSFISASGHTIYYADSVKGRFTISRDNGRNSVYLQMNSLRAEDTAVYYCARVGRLGGVGYYYALGPFDLWGQGTMVTVSS VL: EIVLTQSPGTLSLSPGERATLSCRASQSITSNYLAWYQQKPGQAPRLLIYGASSRATGIPDRFSGSGSGTDFTLTISRLQPEDFAVYYCQQYGSSLYIFGQGTKLEIK
Data returned: 0.36
